Tested on: MCF7
testProtocol: Antiproliferative activity against human MCF7 cells assessed as inhibition of cell growth measured after 72 hrs by CTG assay
Format: functional, cell-based
runConditions: MCF7, 72 h
property: IC50 (nM)

• COc1ncc(-c2cc(OC3CCOCC3)c3ncnc(C)c3c2)cc1N(Cc1cc2ccc(O)cc2oc1=O)S(=O)(=O)c1ccc(F)cc1F = 295
• COc1ncc(-c2cc(OC3CCOCC3)c3ncnc(C)c3c2)cc1NS(=O)(=O)c1ccc(F)cc1F = 282

* * *

testProtocol: Antiproliferative activity against human U373 cells assessed as inhibition of cell growth pre-treated with compound followed by UV irradiation for 5 mins measured after 72 hrs by CTG assay
Type: functional, cell-based
runConditions: U373 MG, light or radiation study
property: pIC50
Please report pIC50 as the negative decimal logarithm of the molar concentration, giving only the number.

pIC50 in this record for COc1cc(COc2ccc3cc(CN(c4cc(-c5cc(OC6CCOCC6)c6ncnc(C)c6c5)cnc4OC)S(=O)(=O)c4ccc(F)cc4F)c(=O)oc3c2)c([N+](=O)[O-])cc1OC : 7.34

* * *

Tested on: U-87 MG
testProtocol: Antiproliferative activity against human U-87 MG cells assessed as inhibition of cell growth measured after 72 hrs by CTG assay
Assay type: functional, cell-based, U-87MG ATCC
pIC50: −log10 of the molar value.
property: pIC50

[1] COc1ncc(-c2cc(OC3CCOCC3)c3ncnc(C)c3c2)cc1NS(=O)(=O)c1ccc(F)cc1F
[2] COc1cc(COc2ccc3cc(CN(c4cc(-c5cc(OC6CCOCC6)c6ncnc(C)c6c5)cnc4OC)S(=O)(=O)c4ccc(F)cc4F)c(=O)oc3c2)c([N+](=O)[O-])cc1OC
[3] COc1ncc(-c2cc(OC3CCOCC3)c3ncnc(C)c3c2)cc1N(Cc1cc2ccc(O)cc2oc1=O)S(=O)(=O)c1ccc(F)cc1F
q: I'd appreciate it if you sorted the entries above by their pIC50, lowest to highest. Please list the labels according to the requested order.
a: 2, 1, 3
